Entries annotated with measured MIC
Test system: Enterococcus
assay summary: Antibacterial activity against Enterococcus 60 assessed as bacterial growth inhibition in presence of 50 ug/ml calcium ions by CLSI protocol based broth microdilution method
Format: functional

>  <smiles data>
CCCCCCCCCC(=O)N[C@@H](Cc1ccc(OC)cc1)C(=O)N[C@@H](CC(N)=O)C(=O)N[C@@H](CC(=O)O)C(=O)N[C@@H]1C(=O)NCC(=O)N[C@@H](CCCN)C(=O)N[C@@H](CC(=O)O)C(=O)N[C@H](C)C(=O)N[C@@H](CC(=O)O)C(=O)NCC(=O)N[C@H](CO)C(=O)N[C@@H]([C@@H](C)CC(=O)O)C(=O)N[C@@H](CC(=O)c2ccccc2N)C(=O)O[C@@H]1C

>  <experimental value>
≥ 32 mg/L

$$$$

Q) What reported MIC corresponds to C#Cc1ccc(C(=O)N[C@@H](Cc2c[nH]c3ccccc23)C(=O)N[C@@H](CC(N)=O)C(=O)N[C@@H](CC(=O)O)C(=O)N[C@@H]2C(=O)NCC(=O)N[C@@H](CCCN)C(=O)N[C@@H](CC(=O)O)C(=O)N[C@H](C)C(=O)N[C@@H](CC(=O)O)C(=O)NCC(=O)N[C@H](CO)C(=O)N[C@@H]([C@@H](C)CC(=O)O)C(=O)N[C@@H](CC(=O)c3ccccc3N)C(=O)O[C@@H]2C)cc1 on Enterococcus?
A) ≥ 32 mg/L

Source listed as ChEMBL document CHEMBL4619795.
